Assay: JC-1 mitochondrial signal, unstimulated adipocytes – cell-based, JC-1 fluorescence, 3T3-L1 adipocytes, 24 h, 100 nL compound, profiling panel (AID 1168); further: test concentration not given here
Conditions: JC-1 mitochondrial fluorescence, higher = more signal, called active from +8 up or from −8 down
# binning rule on z-score: lower bin: < -0.6; middle bin: ≥ -0.6 and < 0.1; upper bin: ≥ 0.1

Recorded results for 2 molecules are shown here.
- Molecule: "COC(=O)[C@@]1(Cc2ccc(OC)cc2)[C@H]2c3cc(C(=O)N4CCCC4)n(CCO)c3C[C@H]2CN1C(=O)c1ccccc1"
  Category: "lower bin"
- Molecule: "C=CC[C@@H](OC(=O)Nc1ccc(SC)cc1)c1ccc(O)c(F)c1"
  Category: "upper bin"

## Input Class (by measured z-score) for Cc1ccc(S[C@]2(C(=O)NCC(F)(F)F)CC(=O)N(Cc3cc(C(F)(F)F)cc(C(F)(F)F)c3)[C@@H]2c2ccc(CO)cc2I)cc1
## Output lower bin

## Input Class (by measured z-score) for CCCCCN1CC=CC23O[C@@H]4/C=C\CCC(C)OC(=O)C4[C@H]2C(=O)N(C(CO)C(C)C)[C@@H]3C1=O (some centres not stated)
## Output middle bin

## Input Class (by measured z-score) for COc1ccc([C@H]2OC[C@@H]3C[C@H](Cc4ccccc4)C(=O)N32)cc1
## Output middle bin

## Input Class (by measured z-score) for C=CC[C@@]1(C(=O)NCCCOC)N=C(c2ccc(OCCCO)cc2)O[C@@H]1c1ccccc1N=[N+]=[N-]
## Output upper bin

## Input Class (by measured z-score) for COC(=O)[C@@]1(Cc2ccc(F)cc2)[C@H]2c3cc(C(=O)N(C)C)n(Cc4ccc(OC(F)(F)F)cc4)c3C[C@H]2CN1C(=O)c1ccccc1
## Output middle bin

## Input Class (by measured z-score) for COC(=O)C1=CC(CCCO)=CC(c2ccc(CN3CCCC3)cc2)N(Cc2cccc(OC(F)(F)F)c2)C=C1C(=O)OC (configuration not stated)
## Output upper bin

----------
Experiment: probe aLefty2 binding to arrayed compounds – biochemical, biotinylated probe, 635/667 nm fluorescence, primary screen (AID 1094);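 further: score merges spot fluorescence near 667 nm with spot signal-to-noise ratio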
Conditions: small-molecule microarray, higher = more signal
So basically: composite z-score at 0.09 or higher? That is class 1. Lower than 0.09? That is class 0.

## Input Quick check, composite z-score >= 0.09? COCCOC(=O)N1C(=O)[C@@]2(c3cc(C#CC4=CCCCC4)ccc31)[C@H](c1ccccc1OCCO)N1[C@H](c3ccccc3)[C@H](c3ccccc3)OC(=O)[C@H]1[C@@H]2C(=O)NC[C@H](O)c1ccccc1
## Output class 0

## Input Quick check, composite z-score >= 0.09? NCCCCCNC(=O)[C@H]1C[C@H]2C(=O)N3CCC[C@H]3C(=O)N2[C@H]1c1cccc(OCCO)c1
## Output class 1

## Input Quick check, composite z-score >= 0.09? O=C1C2C=CC(C(O)c3ccco3)N(Nc3ccccc3F)C2C(=O)N1c1ccccc1 (configuration not stated)
## Output class 0

## Input Quick check, composite z-score >= 0.09? CCCC[C@@H]1C[C@H]1[C@@H](NC(=O)c1cccs1)c1ccccc1C(F)(F)F
## Output class 0

## Input Quick check, composite z-score >= 0.09? CC1=C2[C@@H](CCc3ccccc3)OB(O)C[C@@H]2[C@@H]2C(=O)N(C)C(=O)[C@@H]2C1
## Output class 0

## Input Quick check, composite z-score >= 0.09? O=C(NCCN1CCOCC1)[C@@H]1c2ccccc2C(=O)N(C2Cc3ccccc3C2)[C@H]1c1ccc(CO)cc1
## Output class 0

----------
Test: S6 kinase pathway phospho-S6 level changes – cell-based, A549, cytoblot, luminescence, serum-stimulated, primary screen (AID 1158);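 further: serum-stimulated A549 lung adenocarcinoma cells; signal is phosphorylated S6 detected by cytoblot immunostaining with HRP secondary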
Settings: 5 h, higher = more signal
Recorded endpoint: z-score
Numbers only.

- Compound: "COc1ccc(C#Cc2ccc3c(c2)[C@]2(C(=O)N3)[C@H](c3ccc(O)cc3)N3[C@H](c4ccccc4)[C@H](c4ccccc4)OC(=O)[C@H]3[C@@H]2C(=O)Nc2nc3ccccc3s2)cc1"
  z-score: 0.498
- Compound: "C=CCC(OC(C)=O)[C@@H]1[C@@H](N(Cc2cc3ccccc3o2)C(=O)Cc2ccc(F)cc2)c2cc(OCCCO)ccc2N1C(=O)Cc1ccc2ccccc2c1 (stereo partly specified)"
  z-score: -0.213
- Compound: "C=CCNC(=O)[C@@H]1[C@H]2C(=O)O[C@H](c3ccccc3)[C@H](c3ccccc3)N2[C@H](c2ccccc2OCCO)[C@@]12C(=O)N(C(=O)OCCOC)c1ccc(C#CC3(O)CCCCCC3)cc12"
  z-score: 0.152

Please look at the items below and tell me z-score for each one, in order.
1. C[N+](C)(C)CCCC[C@@H]1NC(=O)[C@@H]2C[C@H](C(=O)NCCCCCCN)[C@H](c3cccc(OCCO)c3)N2C1=O
2. CC(C)[Si](C#C[Si](C(C)C)(C(C)C)C(C)C)(O[C@H](c1ccccc1)c1cn(Cc2ccccc2)nn1)C(C)C
3. CCOC(=O)C[C@H]1[C@H](OC(=O)Cc2ccc3c(c2)OCO3)[C@@H](NC(=O)c2ccc3ccccc3n2)c2cc(OCCCO)ccc2N1C(=O)c1ccccc1

## Output
1. 0.38
2. -0.25
3. -0.246

----------
Target: Torsin-1A (Homo sapiens)
Assay: torsin A mutant lysate binding on microarrays – cell lysate, small-molecule microarray, COS7 lysate, 635/667 nm fluorescence, primary screen (AID 1150);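 further: score pools 667 nm emission and signal to noise measuring lysate protein binding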
Conditions: COS7 hTOR1A mutant lysate, 635 nm fluorescence, higher = more signal
Hi there, I'd appreciate the recorded composite z-score for every entry that follows.
Give bare numbers.

Reference set (8 entries):
- Molecule: "C=CC[C@]1(C(=O)N2CCCCC2)N=C(c2ccc(OCCCO)cc2)O[C@H]1c1ccccc1CN=[N+]=[N-]"
  Recorded endpoint: "composite z-score"
  Value measured: 0.361
- Molecule: "CCCC[C@@H](O)C1=C(COC)C[C@H]2C(=O)N(Cc3ccccc3)C(=O)[C@H]2[C@H]1CO"
  Recorded endpoint: "composite z-score"
  Value measured: 0.69
- Molecule: "C=CCNC(=O)[C@@H]1[C@H]2C(=O)O[C@H](c3ccccc3)[C@H](c3ccccc3)N2[C@H](c2ccccc2OCCO)[C@@]12C(=O)Nc1ccc(C#CCC(C(=O)OC)C(=O)OC)cc12"
  Recorded endpoint: "composite z-score"
  Value measured: 0.566
- Molecule: "C=C(COC)/C(=C/C[C@H](OC(=O)c1ccncc1)c1ccccc1OCCO)c1cc(C(=O)OC)ccc1OC"
  Recorded endpoint: "composite z-score"
  Value measured: 0.664
- Molecule: "CCOC(=O)C[C@H]1[C@H](OC(=O)Cc2ccc3c(c2)OCO3)[C@@H](NC(=O)c2ccc3ccccc3n2)c2cc(OCCCO)ccc2N1C(=O)c1ccccc1"
  Recorded endpoint: "composite z-score"
  Value measured: 0.302
- Molecule: "CCCCC(CC)C(O)C1C=CC2C(=O)N(c3ccccc3)C(=O)C2N1Nc1ccccc1F (centres undefined)"
  Recorded endpoint: "composite z-score"
  Value measured: 0.663
- Molecule: "COCCOC(=O)N1C(=O)[C@@]2(c3cc(C#CC4=CCCCC4)ccc31)[C@H](c1ccccc1OCCO)N1[C@H](c3ccccc3)[C@H](c3ccccc3)OC(=O)[C@H]1[C@@H]2C(=O)NC[C@H](O)c1ccccc1"
  Recorded endpoint: "composite z-score"
  Value measured: 0.501
- Molecule: "C=CCNC(=O)[C@@H]1[C@H]2C(=O)O[C@H](c3ccccc3)[C@H](c3ccccc3)N2[C@H](c2ccc(O)cc2)[C@@]12C(=O)N(C(=O)OCCOC)c1ccc(C#CC3=CCCCC3)cc12"
  Recorded endpoint: "composite z-score"
  Value measured: 0.686

Please look at the items below and tell me composite z-score for each one, in order.
1. C=CC[C@H](OC(=O)Nc1ccc(SC)cc1)c1ccc(O)c2ccccc12
2. C=C(C(=O)CC[C@H](OC(=O)c1ccccc1-c1ccccc1C(=O)O)c1cccc(OCCO)c1)C(C)C
3. COc1ccc(C(=O)Nc2ccc(CN3C(=O)[C@]4(O[C@H](CC(=O)N5Cc6ccccc6C[C@H]5CO)[C@@H]([Si](C)(C)c5ccc(OC)cc5)[C@@H]4C)c4ccccc43)cc2)cc1
4. O=C(C1N=C(c2ccc(OCCCO)cc2)N(c2ccccc2)O1)N1CCCCC1 (centres undefined)

## Output
0.465
-0.0541
0.93
0.854

Please look at the items below and tell me composite z-score for each one, in order.
1. COC(=O)[C@@]1(Cc2ccc(F)cc2)[C@H]2c3cc(C(=O)N4CCCC4)n(CCc4c[nH]c5ccccc45)c3C[C@H]2CN1C(=O)c1ccccc1
2. CCCC#C[Si](O[C@H](CC)c1cn([C@H](C)c2ccccc2)nn1)(C(C)C)C(C)C

## Output
1: 0.321; 2: 0.95

----------
Experiment: blockers of DNA damage checkpoint Chk1 activation – imaging, HeLa, hydroxyurea, phospho-Chk1 antibody, percent positive cells, primary screen (AID 1186)
Conditions: hydroxyurea-induced phospho-Chk1 immunofluorescence imaging, higher = more signal
So basically: z-score at -0.06 or higher? That is fulfilled. Lower than -0.06? That is not fulfilled.

## Input Quick check, z-score >= -0.06? CC(C)c1ccc(NN2C(C(O)c3ccc(F)cc3)C=CC3C(=O)N(c4ccccc4)C(=O)C32)cc1 (configuration not stated)
## Output fulfilled

## Input Quick check, z-score >= -0.06? CC[C@@H]1O[Si](C(C)C)(C(C)C)c2c1cc(-c1cc(C)c(OC)c(C)c1)nc2-c1ccc(Oc2ccccc2)cc1
## Output not fulfilled

## Input Quick check, z-score >= -0.06? O=C1N(Cc2ccccc2)c2ccccc2C[C@]12N=C(c1ccc(OCCCO)cc1)O[C@@H]2c1ccccc1
## Output not fulfilled

## Input Quick check, z-score >= -0.06? O=C1O[C@@H](c2ccccc2)[C@@H](c2ccccc2)N2[C@@H](c3ccc(OCCO)cc3)[C@]3(C(=O)Nc4ccc(C#CC5=CCCCC5)cc43)[C@@H](C(=O)NC[C@H](O)c3ccccc3)[C@H]12
## Output fulfilled

## Input Quick check, z-score >= -0.06? O[C@@H](Cc1ccccc1)[C@@H](/C=C/C1CC1)N(CC#Cc1ccccc1)Cc1ccccc1Br
## Output not fulfilled

## Input Quick check, z-score >= -0.06? C=CC[C@@H](OC(=O)Nc1ccc(OC)cc1)c1ccc(O)c(F)c1
## Output fulfilled

## Input Quick check, z-score >= -0.06? [N-]=[N+]=Nc1ccccc1C[C@@]1(C(N)=O)N=C(c2ccc(OCCCO)cc2)O[C@@H]1c1ccccc1N=[N+]=[N-]
## Output not fulfilled
